# Test system: intestinal alkaline phosphatase [Mus musculus]
# ASSAY_EXPLANATION: mouse intestinal phosphatase enzyme activation – biochemical, luminescence, single concentration, confirmation (AID 434970)
# TEST_CONDITIONS: purified mouse IAP, CDP-Star luminescence, 30 min, at 10 µM; stronger effect = lower value
In all, about 11,000 compounds went through this assay and about 310 (2.8%) were called active. Many of the other results were omitted from the sample, so actives are more common in it than they were.
MEASURE: activity change, negative = activation (%)
API: value field is a number in %; no unit string.

Consider the following illustrative entries.
COMPOUND	RECORDED_MEASUREMENT
C[C@@H]1CN([C@@H](C)CO)C(=O)Cc2cc(NC(=O)Nc3cccc4ccccc34)ccc2O[C@@H]1CN(C)Cc1ccc(C(F)(F)F)cc1	-75
Cc1ccc(NC(=S)NC2CCSc3ccccc32)cc1C (centres undefined)	-172
C[C@H](CO)N1C[C@H](C)[C@H](CN(C)Cc2ccc(Oc3ccccc3)cc2)Oc2ccc(NC(=O)Nc3cccc4ccccc34)cc2CC1=O	-103

Value of activity change, negative = activation reported for the compound CC(NC(=O)Nc1ccc(Cl)c(Cl)c1)C(c1ccccc1)N1CCOCC1 (centres undefined) is -221

Measured activity change, negative = activation, CC(O)[C@H](NC(=O)C1(c2ccccc2)CCN(C(=O)OC(C)(C)C)CC1)C(=O)O (some centres undefined) : -15.3

The reported activity change, negative = activation of the compound CC(C)(C)c1n[nH]c(=S)n(N)c1=O was -4.25

Short answer for CC(C)NC(=O)N(C)C[C@H]1Oc2ccc(NC(=O)Nc3ccc(C(F)(F)F)cc3)cc2C(=O)N([C@H](C)CO)C[C@@H]1C : activity change, negative = activation was -96.3

Per the records, this compound ( C[C@@H]1CN([C@@H](C)CO)C(=O)c2cccc(NC(=O)Nc3ccc(F)cc3)c2O[C@@H]1CN(C)Cc1ccc(Oc2ccccc2)cc1 ) has activity change, negative = activation equal to -117

Note to self: activity change, negative = activation recorded for COc1ccc(NC(=O)NCc2ccncc2)cc1 was -0.85

---

Recorded activity change, negative = activation by entry
# Tested on: intestinal alkaline phosphatase [Mus musculus]
# ASSAY_EXPLANATION: mouse intestinal phosphatase enzyme activation – biochemical, luminescence, single concentration, confirmation (AID 434970)
# TEST_CONDITIONS: purified mouse IAP, CDP-Star luminescence, 30 min, at 10 µM; stronger effect = lower value
In all, about 11,000 compounds went through this assay and about 310 (2.8%) were called active. Many of the other results were omitted from the sample, so actives are more common in it than they were.
Write the value in % as a bare number.

// worked examples, activity change, negative = activation included
COMPOUND	ASSAYED_TARGET	MEASURE	RECORDED_MEASUREMENT
O=C(N/N=C/c1ccc([N+](=O)[O-])o1)c1ccccc1NS(=O)(=O)c1cccs1	intestinal alkaline phosphatase [Mus musculus]	activity change, negative = activation	62.5
O=C(Nc1ccc(F)cc1F)Nc1csc2ccccc12	intestinal alkaline phosphatase [Mus musculus]	activity change, negative = activation	-77.3
Cc1cc(NC(=O)CC23CC4CC(C2)CC(CC(=O)Nc2cc(C)on2)(C4)C3)no1	intestinal alkaline phosphatase [Mus musculus]	activity change, negative = activation	-1.55
O=C(Nc1ccccc1)Nc1csc2ccccc12	intestinal alkaline phosphatase [Mus musculus]	activity change, negative = activation	-108
CCOC(=O)c1ccc(NC(=O)Nc2ccc(F)cc2)cc1	intestinal alkaline phosphatase [Mus musculus]	activity change, negative = activation	-66.6

Per the record, C#CCOCCOCCOCCNc1nc(N2CCN(C(=O)CCCCCCCCCCNC(=O)[C@@H](CCSC)n3cc(CCO)nn3)CC2)nc(N2CCN(C(=O)CCCCCCCCCCNC(=O)[C@H](CCCN=C(N)N)n3cc(C[C@@H](C)CC)nn3)CC2)n1 has activity change, negative = activation of -761

activity change, negative = activation measured on CCCCC(=O)Nc1ccc(F)c(Cl)c1 = -5.3

Measured activity change, negative = activation of O=C(Nc1ccc(F)c(Cl)c1)Nc1csc2ccccc12 : -115

Consider Cc1ccc(S(=O)(=O)Nc2ccc(O)c(Sc3ncn[nH]3)c2)cc1 . Its measured activity change, negative = activation is 65.1

So for O=C(Nc1nnc(SCc2ccccc2Cl)s1)C1COc2ccccc2O1 (stereo not drawn) , the logged activity change, negative = activation turned out to be 3.5

Value of measured activity change, negative = activation for the entry CCOc1ccc(-n2cc(C(=O)Nc3ccc(Cl)cn3)c3cc(OC)c(OC)cc3c2=O)cc1 : 5.4

// sample COc1ccc(CNC(=O)C[C@H]2C[C@H](C(=O)N3CCOCC3)[C@@]3(C)c4[nH]c5cc(CCC(=O)N(C)C)ccc5c4CCN3C2=O)cc1OC , its activity change, negative = activation was -8.2

Looking up Cc1noc(C)c1S(=O)(=O)N1CCC(C(=O)NCCN2CCC(C)CC2)CC1 , I see its activity change, negative = activation listed as -1.4

// recorded activity change, negative = activation for CCOC(=O)c1ccc(NC(=O)Nc2ccc3c(c2)OCCO3)cc1 : -106

Lab book: activity change, negative = activation of COc1cccc(-n2c(SCC(=O)Nc3nccs3)nnc2-c2ccoc2C)c1 noted as 1.8

Summary for this compound, CC(C)CNC(=O)c1ccccc1NC(=O)Nc1ccccc1 : activity change, negative = activation is 5.15

# compound Cc1oc(-c2ccc(Cl)cc2)nc1CN1CCC(C(=O)NCc2cccs2)CC1 ; its activity change, negative = activation = -19.5

Value of measured activity change, negative = activation for the entry O=C(Nc1ccc(F)cc1)Nc1csc2ccccc12 : -93.7

Item: O=C(Nc1cccc(-c2cccc(Cl)c2)c1)C1CCN(Cc2ccon2)CC1 | activity change, negative = activation: -73.1

For reference, reported activity change, negative = activation for O=C(Nc1ccc2c(c1)OCCO2)C1CCN(S(=O)(=O)c2cccc3nsnc23)CC1 stands at 1.25

CCCCOC(=O)c1ccc(NC(=O)Nc2ccc(OC)c(OC)c2)cc1 yielded activity change, negative = activation of -63.5

Lab note: CC1CCN(C(c2cccs2)c2nnnn2Cc2ccccc2)CC1 (stereo not drawn) gave activity change, negative = activation of 1.65
